molecular target: SARS-CoV-2 spike protein on fully infectious (replication-competent) SARS-CoV-2 virus (SARS-CoV-2, UniProt P0DTC2 14-1273); assay: cell-based or functional assay
Measured Neutralization (Infectious virus; (µg/mL)) of individual entries
The reply should contain only the number, in µg/mL.

Worked examples, 3 binders total:
AB-009734 (antibody, V domains shown) VH: QVHLVQSGAEVKTPGASVRVSCKASGYTFTSHYMHWVRQAPGQGLEWMGLINPSGSGTAYPQHFQGRVTMTRDTSTTTDYMDLSSLRSEDTAMYFCARMERSGAFDLWGQGTMVTVSS VL: EIVLTQSPGTLSLSPGERATLSCRASQTISSRYLAWYYQKPGQAPRLLIQGSSIRATGIPDRFSGSGSGTDFTLTISRLEPEDFAVYYCQHYGSSPPMYTFGQGTKLEIK = 21.4
AB-009346 (antibody, V domains shown) VH: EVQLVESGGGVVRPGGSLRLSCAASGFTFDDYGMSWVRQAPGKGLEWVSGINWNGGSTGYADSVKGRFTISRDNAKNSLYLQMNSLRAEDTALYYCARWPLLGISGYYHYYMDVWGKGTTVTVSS VL: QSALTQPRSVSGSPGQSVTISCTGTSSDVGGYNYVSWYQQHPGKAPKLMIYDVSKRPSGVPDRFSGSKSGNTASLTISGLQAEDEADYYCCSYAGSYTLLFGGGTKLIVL = 2.14
AB-009281 (antibody, V domains shown) VH: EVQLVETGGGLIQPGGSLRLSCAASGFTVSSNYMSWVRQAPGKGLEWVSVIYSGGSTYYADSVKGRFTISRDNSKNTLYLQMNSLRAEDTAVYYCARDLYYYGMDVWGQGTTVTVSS VL: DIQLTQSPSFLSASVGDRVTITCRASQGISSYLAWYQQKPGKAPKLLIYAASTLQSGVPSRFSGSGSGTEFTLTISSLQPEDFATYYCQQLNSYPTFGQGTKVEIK = 33.7

Quick one: Neutralization (Infectious virus; (µg/mL)) of AB-009271 (antibody, V domains shown) VH: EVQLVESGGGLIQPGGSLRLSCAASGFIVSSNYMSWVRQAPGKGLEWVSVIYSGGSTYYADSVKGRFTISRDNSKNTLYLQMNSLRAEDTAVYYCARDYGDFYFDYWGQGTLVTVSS VL: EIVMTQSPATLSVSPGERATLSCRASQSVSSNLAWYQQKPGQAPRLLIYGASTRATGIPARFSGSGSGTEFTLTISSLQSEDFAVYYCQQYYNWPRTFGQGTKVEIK ? 0.181

What value of measured Neutralization (Infectious virus; (µg/mL)) is listed for AB-009769 (antibody, V domains shown) VH: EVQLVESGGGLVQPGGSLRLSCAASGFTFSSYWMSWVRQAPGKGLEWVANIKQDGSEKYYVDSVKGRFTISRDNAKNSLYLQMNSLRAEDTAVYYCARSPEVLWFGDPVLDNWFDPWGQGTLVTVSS VL: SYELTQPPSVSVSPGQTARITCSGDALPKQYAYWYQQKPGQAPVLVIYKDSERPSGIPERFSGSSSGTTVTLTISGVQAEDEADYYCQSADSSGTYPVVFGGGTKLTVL ? 24.5

What does the data say about its Neutralization (Infectious virus; (µg/mL))? Entry: AB-009620 (antibody, V domains shown) VH: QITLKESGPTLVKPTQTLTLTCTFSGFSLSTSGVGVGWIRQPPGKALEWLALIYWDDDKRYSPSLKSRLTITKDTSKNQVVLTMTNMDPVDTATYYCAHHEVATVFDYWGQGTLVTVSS VL: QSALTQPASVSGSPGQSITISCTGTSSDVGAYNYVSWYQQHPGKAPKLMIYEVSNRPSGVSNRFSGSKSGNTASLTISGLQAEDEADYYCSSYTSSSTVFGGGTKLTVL 13.3
